So I've got a bunch of molecules here, and I need their Emax values.
- target.or.test.system: ΔF508-CFTR (Homo sapiens, UniProt P13569, DEL508-508)
- Construct: expressed in transfected cells
- Sequence (P13569 with tags, fused parts or gaps DEL508-508): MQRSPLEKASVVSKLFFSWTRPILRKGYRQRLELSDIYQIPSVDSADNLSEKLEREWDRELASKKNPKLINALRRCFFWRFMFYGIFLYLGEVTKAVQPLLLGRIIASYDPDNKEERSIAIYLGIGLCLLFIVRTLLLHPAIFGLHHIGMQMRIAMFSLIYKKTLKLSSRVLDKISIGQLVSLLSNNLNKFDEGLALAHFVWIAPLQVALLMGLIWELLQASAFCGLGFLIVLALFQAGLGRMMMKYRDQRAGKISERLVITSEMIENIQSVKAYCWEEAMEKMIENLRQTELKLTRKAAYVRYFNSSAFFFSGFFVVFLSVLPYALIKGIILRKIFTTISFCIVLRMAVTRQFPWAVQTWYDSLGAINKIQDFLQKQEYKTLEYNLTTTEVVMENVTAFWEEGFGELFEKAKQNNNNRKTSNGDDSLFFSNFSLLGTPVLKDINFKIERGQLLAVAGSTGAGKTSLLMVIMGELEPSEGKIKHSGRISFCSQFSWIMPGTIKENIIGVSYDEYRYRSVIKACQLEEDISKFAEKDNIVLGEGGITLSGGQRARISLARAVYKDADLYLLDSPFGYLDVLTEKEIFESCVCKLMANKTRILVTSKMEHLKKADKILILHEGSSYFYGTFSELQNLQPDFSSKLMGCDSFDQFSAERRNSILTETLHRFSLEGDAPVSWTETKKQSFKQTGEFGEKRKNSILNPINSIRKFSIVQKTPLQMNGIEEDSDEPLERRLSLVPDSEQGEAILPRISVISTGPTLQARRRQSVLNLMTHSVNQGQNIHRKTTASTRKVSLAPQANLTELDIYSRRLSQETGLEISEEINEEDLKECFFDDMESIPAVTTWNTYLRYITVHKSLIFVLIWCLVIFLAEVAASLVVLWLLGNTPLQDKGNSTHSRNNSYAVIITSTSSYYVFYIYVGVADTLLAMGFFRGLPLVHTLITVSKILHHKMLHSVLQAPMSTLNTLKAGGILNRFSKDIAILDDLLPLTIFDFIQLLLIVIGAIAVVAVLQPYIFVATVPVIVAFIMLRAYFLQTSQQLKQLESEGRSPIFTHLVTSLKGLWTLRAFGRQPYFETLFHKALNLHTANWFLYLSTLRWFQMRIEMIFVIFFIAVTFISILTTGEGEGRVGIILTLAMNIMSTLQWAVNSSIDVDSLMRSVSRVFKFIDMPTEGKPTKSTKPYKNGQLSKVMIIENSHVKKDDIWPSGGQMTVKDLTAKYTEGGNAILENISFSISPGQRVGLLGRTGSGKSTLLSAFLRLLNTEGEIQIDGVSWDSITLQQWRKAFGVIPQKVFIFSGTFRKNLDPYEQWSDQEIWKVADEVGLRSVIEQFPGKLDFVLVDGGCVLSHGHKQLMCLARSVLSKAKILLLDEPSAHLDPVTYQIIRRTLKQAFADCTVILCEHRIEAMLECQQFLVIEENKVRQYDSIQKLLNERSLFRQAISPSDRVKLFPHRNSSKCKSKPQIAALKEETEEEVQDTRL
- test.method.notes: Membrane potential optical assay (FRET voltage-sensor dyes, VIPR), identification of potentiator compounds
- Type: cell-based
- experimental.context: Table 3; assay not given; read-out: % Activity (% Efficacy, relative efficacy)

Looking up COc1ccc(Cl)cc1-c1cc2cc[nH]c2cc1NC(=O)c1c[nH]c2ccccc2c1=O , I found its Emax recorded as 25 to 100%

Looking up COc1ccc(Cl)cc1-c1ccccc1NC(=O)c1c[nH]c2ccccc2c1=O , I found its Emax recorded as 25 to 100%

Looking up O=C(Nc1cccc(Cl)c1)c1c[nH]c2ccccc2c1=O , I found its Emax recorded as 25 to 100%

Looking up Cc1cc(C2C3CC4CC(C3)CC2C4)c(O)cc1NC(=O)c1c[nH]c2ccccc2c1=O (stereo not drawn) , I found its Emax recorded as 25 to 100%

Looking up N#CCc1ccc(NC(=O)c2c[nH]c3ccccc3c2=O)cc1 , I found its Emax recorded as < 25%

Looking up Cc1ccccc1-c1ccccc1NC(=O)c1c[nH]c2ccccc2c1=O , I found its Emax recorded as 25 to 100%

Looking up COC(=O)Nc1cc(NC(=O)c2c[nH]c3ccccc3c2=O)ccc1C(C)(C)C , I found its Emax recorded as 25 to 100%

Looking up O=C(Nc1cc(O)c(C2CCCCC2)cc1C(F)(F)F)c1c[nH]c2ccccc2c1=O , I found its Emax recorded as > 100%

Looking up Cc1cccc(NC(=O)c2c[nH]c3ccccc3c2=O)c1C#N , I found its Emax recorded as < 25%

// provenance: patent US8802700B2
